Organism: Rattus norvegicus
Assay: Open TG-GATES - Regimen: Daily Repeat
Format: toxicity, organism-based, Sprague-Dawley
Set-up: regimen Daily Repeat, gender Male, age 6 weeks
Conditions: in vivo, po, 1000 mg/kg, […], tissue Plasma, route gavage, dose level High, time 7 day
Quick reference for CRE among some compounds
The figure you give is taken to be in mg/dL; do not add the unit.

Example compounds with recorded CRE:
compound	CRE (mg/dL)
CCOc1ccc(NC(=O)CC(C)O)cc1 (stereo not drawn)	0.2
CCOC(=O)CCC(=O)O[C@H]1[C@H](O[C@@H]2[C@@H](C)[C@H](O[C@H]3C[C@@](C)(OC)[C@@H](O)[C@H](C)O3)[C@@H](C)C(=O)O[C@H](CC)[C@@](C)(O)[C@H](O)[C@@H](C)C(=O)[C@H](C)C[C@@]2(C)O)O[C@H](C)C[C@@H]1N(C)C [ERYTHROMYCIN ETHYLSUCCINATE]	0.2

# next compound below
Note CRE for the compound shown: COC1=CC(=O)C[C@@H](C)[C@]12Oc1c(Cl)c(OC)cc(OC)c1C2=O
0.4
